# Tested on: HT-29
# experimentNotes: NCI tumour cell line growth inhibition, 48 h
Calls of active or inactive are those of the source. Rule as the data show it: active = GI50 up to about 1.1 µM and inactive = higher.
In this exercise, the only acceptable responses are T (active), F (inactive)

Use the examples below as a reference point.
compound | assignedLabel
Cc1ccc(-n2c(C)nc3c2C(=O)c2ccccc2C3=O)cc1 | F
COC(=O)/C(=C/c1ccc(OC)cc1)c1cc(OC)c(OC)c(OC)c1 | T
O=C1C(C(c2ccccc2)N2CCOCC2)=C(O)C(c2ccccc2)N1c1ccccc1 (stereo not drawn) | F
CC1=NN(C(=O)Cc2ccccc2)C(=O)/C1=C/c1c(O)ccc2ccccc12 | F
COc1cccc(/C=N/NC(N)=O)c1O | F

-- ask Look up the recorded call for `COc1ccc(-c2ccccc2)c2[nH]c3c(c12)CCNC3=O` in this test.
-- reply F

-- ask Dear colleague, could you share the recorded outcome for CC(=O)NC(CCCCNC(=O)N(CCCl)N=O)C(=O)NCc1ccccc1 (stereo not drawn) when you have a moment?
-- reply F

###

# Test system: OVCAR-5
# experimentNotes: NCI tumour cell line growth inhibition, 48 h
The source made the active and inactive calls. Cut-off read from the data, not from the text of the source: active = GI50 up to about 1.1 µM and inactive = higher.
GI50 reference

lineNotation | GI50
CC(C)(C)/N=c1/n(C(C)(C)C)oc(=O)n1C(C)(C)C | > 100 µM (inactive)

GET /value?item= `CC(=O)O[C@H]1C[C@@H](OC(C)=O)[C@@](C)(O)[C@@H]2[C@@H](OC(C)=O)[C@@]3(O)[C@H](/C=C(/CCl)[C@H]4O[C@H]4[C@@H](OC(C)=O)[C@@]12C)OC(=O)[C@@H]3C` &field=GI50 returns > 25 µM (inactive)

// `CC(=O)Nc1ccc(/C=N\N2C(=O)c3ccccc3C2=O)cc1` : GI50 value = > 100 µM (inactive)

# GI50 of `O=c1c2ccccc2[nH]c2c(Cl)cc(Cl)c(N3CCCCC3)c12` = 34.5 µM (inactive)

Measured GI50, `O=C(c1nsc(Cl)c1Cl)N1CCCCC1` : > 100 µM (inactive)

###

# Tested on: T47D
# experimentNotes: NCI tumour cell line growth inhibition, 48 h
The source made the active and inactive calls. Rule as the data show it: active = GI50 up to about 1.1 µM and inactive = higher.
assayEndpoint: GI50

compound | endpointValue
O/N=C/C1c2ccccc2-c2ccccc21 | 19.3 µM (inactive)
CN1C/C(=C\c2ccc(Cl)cc2)C(=O)/C(=C/c2ccc(Cl)cc2)C1 | 4.48 µM (inactive)
O=C(NNC(=O)c1ccccc1O)c1cccc(Br)c1 | > 51.6 µM (inactive)
CN1C(=O)C23CCCCC2CC1(c1ccccc1)S3 (centres undefined) | 42.6 µM (inactive)
CSc1nc(Br)nc2c1ncn2C1CC(Oc2ccc(C)cc2)C(COc2ccc(C)cc2)O1 (centres undefined) | > 100 µM (inactive)

// field: GI50; key: `COc1c(-c2nc3ccc(N4CCN(C)CC4)nc3[nH]2)cc(OC)c2[nH]c(COC(C)=O)nc12` ; value = 22.5 µM (inactive)

The compound identified as `CC(C)CNc1nc(N)nc(O)c1NC=O` registered its GI50 at > 100 µM (inactive)

GI50 for `O=C(NCCCCN(CCCNC(=O)C(F)(F)F)Cc1ccc2ccccc2c1)C(F)(F)F` is 17.7 µM (inactive)

Input `C/C(=N/S(=O)(=O)c1ccc(Cl)c(Cl)c1)OCC(C)(C)C` . Output GI50: > 100 µM (inactive)

###

# System: Malme-3M
# experimentNotes: NCI tumour cell line growth inhibition, 48 h
Calls of active or inactive are those of the source. Rule as the data show it: active = GI50 up to about 1.1 µM and inactive = higher.
Could you please pick one outcome from this set? yes (1) for active, no (0) for inactive

# example entries with known answers
compound | assignedLabel
CC1=CP(=O)(c2c(C(C)C)cc(C(C)C)cc2C(C)C)CCC1Cl (centres undefined) | no (0)
c1ccc2c(c1)ccc1cc3cc(NCCCCNc4ccc5nc6c(ccc7ccccc76)cc5c4)ccc3nc12 | no (0)
COC(=O)C1CCC(=O)N1C(c1ccc(OC)cc1)c1ccc(OC)cc1 (centres undefined) | no (0)
O=P1(N(CCCl)CCCl)NCCCO1 (centres undefined) [CYCLOPHOSPHAMIDE ANHYDROUS] | no (0)

-- ask Could you kindly confirm the outcome this assay logged for `CC(C)N1[C@@H]2CCCC[C@H]2N(C(C)C)P1(=O)C(=O)/C=C/c1ccccc1` ?
-- reply yes (1)

-- ask Called result for C[C@]12CCC(=O)C=C1CC[C@@H]1C2CC[C@]2(C)c3nn(-c4ccccc4)nc3CC12 (some centres undefined)
-- reply no (0)

-- ask Per the records of this test, what outcome belongs to c1ccc2c(c1)CC1COc3ccccc3C1O2 (centres undefined) ?
-- reply no (0)

-- ask Please state the recorded outcome for this compound: O=C(Nc1ccccc1)OCCN=C1c2ccccc2C(Br)C(Br)c2ccccc21 (centres undefined)
-- reply no (0)

-- ask What did the test return for O=C(Nc1ccccc1)OC1OC(COC(=O)c2ccccc2)C(OC(=O)c2ccccc2)C1OS(=O)(=O)c1ccc([N+](=O)[O-])cc1 (centres undefined) ?
-- reply no (0)

###

# System: OVCAR-5
# experimentNotes: NCI tumour cell line growth inhibition, 48 h
Active and inactive are the calls of the source. Rule as the data show it: active = GI50 up to about 1.1 µM and inactive = higher.
Item-by-item account of GI50

Known results for compounds:
compound | assayedSystem | GI50
CC1=NN(C(=O)c2ccccc2O)C(=O)/C1=C/c1c(O)ccc2ccccc12 | OVCAR-5 | 4.11 µM (inactive)
CC(C)N1[C@@H]2CCCC[C@H]2N(C(C)C)P1(=O)C(=O)/C=C/c1ccccc1 | OVCAR-5 | 2.37 µM (inactive)

// GI50 lookup, compound = O=C1CCCC[C@H]1C(O)CC1CC(=O)N(c2ccccc2)C(=O)C1 (stereo not given in full) , result: > 100 µM (inactive)

For this compound ( `CN(C)CCOc1ccc(-c2c(Oc3ccc(Cl)cc3)c(=O)oc3ccccc23)cc1` ), measured GI50 is 15.8 µM (inactive)

###

# Test system: HT-29
# experimentNotes: NCI tumour cell line growth inhibition, 48 h
Active and inactive are the calls of the source. Cut-off read from the data, not from the text of the source: active = GI50 up to about 1.1 µM and inactive = higher.
Respond using exactly one of the listed classes: active, inactive

Example entries and their recorded answers appear below.
molecule | assayedSystem | assignedLabel
CC1(Br)C(=O)NC(=O)N([C@H]2C[C@H](O)[C@@H](CO)O2)C1N=[N+]=[N-] (stereo partly drawn) | HT-29 | inactive
O=[PH](O)c1cccnc1 | HT-29 | inactive
CC(=O)O[C@H]1C(=O)[C@@]2(C)[C@H]([C@H](OC(=O)c3ccccc3)[C@]3(O)C[C@H](OC(=O)[C@H](OC(=O)OCCC(O)CO)[C@@H](NC(=O)c4ccccc4)c4ccccc4)C(C)=C1C3(C)C)[C@]1(OC(C)=O)CO[C@@H]1C[C@@H]2O (stereo partly drawn) | HT-29 | active

Next, consider the following molecule.
-- ask Could you please tell me the result logged for `O=C(CSCC(=O)N/N=C\c1cc(Br)cc(Br)c1O)N/N=C\c1cc(Br)cc(Br)c1O` in this assay?
-- reply inactive

###

# Test system: OVCAR-8
# experimentNotes: NCI tumour cell line growth inhibition, 48 h
Calls of active or inactive are those of the source. No stated cut-off is given here; in the data, active = GI50 up to about 1.1 µM and inactive = higher.
Classes to choose from: YES for active, NO for inactive

compound | assayedSystem | assignedLabel
CCOC(=O)C1Cc2c(ccc(OC)c2OC)C(=O)C1N (stereo unspecified) | OVCAR-8 | NO
CCSc1cc2c(cc1O)CC[C@@H]1[C@@H]2CC[C@]2(C)[C@@H](O)CC[C@@H]12 | OVCAR-8 | NO
COc1ccc2ccccc2c1C1OC(=O)c2ccccc21 (stereo unspecified) | OVCAR-8 | NO
COC(=O)c1sc(=S)sc1SCc1ccccc1CSc1sc(=S)sc1C(=O)OC | OVCAR-8 | NO
CC(=O)Oc1ccc2c(c1)oc1c3ccc(OC(C)=O)cc3n(C)c(=O)c21 | OVCAR-8 | NO
[N-]=[N+]=Nc1ccc(NCCCCCC(=O)ON2C(=O)CCC2=O)c([N+](=O)[O-])c1 | OVCAR-8 | NO
NC(=O)c1ccc(NS(=O)(=O)c2ccc(N)cc2)nc1 | OVCAR-8 | NO
CSCCC(NC(=O)OCc1ccccc1)P(=O)(O)c1ccccc1 (stereo unspecified) | OVCAR-8 | NO

-- ask What did this assay record as the result for CC(C)CC(N)C(=O)NC(CNC(CCC(N)=O)C(=O)NC(CC(C)C)C(=O)NC(CC(C)C)C(=O)O)Cc1ccc2ccccc2c1 (stereo unspecified) ?
-- reply NO

-- ask Short answer needed: outcome of this test for `Cc1cc2c(cc1C)[n+]([O-])c(C(=O)/C=C/c1ccccc1[N+](=O)[O-])c(C)[n+]2[O-]` ?
-- reply NO

-- ask Which outcome was entered for the compound COC(=O)C(/C(=N/N)C(=O)Nc1cc(Cl)c(Cl)cc1Cl)c1nc2ccc(Cl)cc2nc1O (stereo unspecified) in this test?
-- reply NO

###

Measured GI50, listed per entry for reference.
# Test system: TK-10
# experimentNotes: NCI tumour cell line growth inhibition, 48 h
Activity calls are given as the source filed them. Cut-off read from the data, not from the text of the source: active = GI50 up to about 1.1 µM and inactive = higher.

Completed entries (count: 6):
molecule | GI50
COc1ccccc1CCc1cc(OC)c(OC)c(OC)c1 | 76.7 µM (inactive)
CC[N+](C)(C)c1ccc(C(=C2C=CC(=[N+](C)C)C=C2)c2ccc(N(C)C)cc2)cc1 | 28 µM (inactive)
N/C=N/S(=O)(=O)c1ccc(NC(=O)COC(=O)c2cccc3c(=O)c4ccccc4[nH]c23)cc1 | > 100 µM (inactive)
CC1(Br)C(=O)NC(=O)N([C@H]2C[C@H](O)[C@@H](CO)O2)C1N=[N+]=[N-] (some centres not stated) | > 100 µM (inactive)
O/N=C/C1c2ccccc2-c2ccccc21 | 18.9 µM (inactive)
COc1ccc(NC(=O)CSc2nnc(-c3ccc(NC(C)=O)cc3)o2)cc1 | 21.7 µM (inactive)

Moving on to another molecule below.
`Cn1nc(-c2ccccc2)c2c(/C=C/c3ccc(Cl)cc3)onc2c1=O` yielded GI50 of 33 µM (inactive)

Source listed as ChEMBL document CHEMBL1201862.
